# Test system: NCI/ADR-RES ovarian
# Experiment summary: NCI tumour cell line growth inhibition, 48 h
Please enter TRUE where TGI is greater than or equal to 8 µM, and FALSE where it is lower.

Illustrative cases are given below, each with its answer.
>>> class("C=CC(=O)N1C/C(=C\\c2ccc(N(C)C)cc2)C(=O)/C(=C/c2ccc(N(C)C)cc2)C1")
"TRUE"
>>> class("CC(C)/C(Cl)=N/OC(=O)Nc1ccc(F)c(Cl)c1")
"TRUE"
>>> class("Cc1ccc(C)n2c1nc1ccc3ccccc3c12")
"TRUE"
>>> class("O=C1C(Br)=CC2([N+](=O)[O-])CCNc3c(O)c4c5c(c3C2=C1Br)=NCCC=5C=N4 (stereo unspecified)")
"FALSE"
>>> class("O=C(Nc1ccccc1F)c1c(O)nc2sccn2c1=O")
"TRUE"

## Task Can Cc1cc(-c2ncc(CC(=O)Nc3ccc(-c4cnccn4)cn3)cc2C)ccn1 be said to have TGI at or above 8 µM?
## Result TRUE

## Task Can O=C(CN1CCN(c2ncccn2)CC1)Nc1ccc(Cl)cc1C(=O)c1ccccc1Cl be said to have TGI at or above 8 µM?
## Result TRUE

## Task Can CCOC(=O)c1c2c(n3ccc(NC(=O)CCN4CCCC4)cc13)C(=O)c1ncccc1C2=O be said to have TGI at or above 8 µM?
## Result FALSE

## Task Can NCCC(N)C(=O)O (stereo unspecified) be said to have TGI at or above 8 µM?
## Result TRUE

## Task Can CCCC/C=C1\CCC(CN2CCCCC2)C1=O (stereo unspecified) be said to have TGI at or above 8 µM?
## Result TRUE

## Task Can COc1ccc2[nH]c(C(=O)N3CC(CCl)c4ccc(N)cc43)cc2c1 (stereo unspecified) be said to have TGI at or above 8 µM?
## Result FALSE

## Task Can COc1cccc(N2C(=O)C3c4[nH]c5ccccc5c4C4c5ccccc5CCC4C3C2=O)c1 (stereo unspecified) be said to have TGI at or above 8 µM?
## Result TRUE

## Task Can CN1CCN(CN2C(=O)C3C4C=CC(C3C2=O)C2C3C(=O)N(CN5CCN(C)CC5)C(=O)C3C42)CC1 (stereo unspecified) be said to have TGI at or above 8 µM?
## Result TRUE

## Task Can CN(C)c1cccc2c(S(=O)(=O)N[C@H]3CC[C@H]4[C@@H]5CCc6cc(O)ccc6[C@H]5CC[C@]34C)cccc12 be said to have TGI at or above 8 µM?
## Result TRUE

## Task Can Brc1ccc(N=NN2CCCCC2)cc1 be said to have TGI at or above 8 µM?
## Result TRUE

## Task Can Cc1ccc([N+](=O)[O-])cc1S(=O)(=O)Nc1ccc(C2=NN(c3ccc([N+](=O)[O-])cc3[N+](=O)[O-])C(c3ccccc3)C2)cc1 (stereo unspecified) be said to have TGI at or above 8 µM?
## Result TRUE

## Task Can CSc1c(C(=O)Nc2ccccc2)c(N)nn1-c1ccccc1 be said to have TGI at or above 8 µM?
## Result TRUE

## Task Can CC(=O)Oc1ccc(/C=C/C(=O)O[C@@H](C)[C@H](C)OC(=O)/C=C/c2ccc(OC(C)=O)c(OC(C)=O)c2)cc1OC(C)=O be said to have TGI at or above 8 µM?
## Result TRUE

## Task Can CC(=O)NCCCCNCCCNC(C)=O be said to have TGI at or above 8 µM?
## Result TRUE

## Task Can CN(C)c1ccc(N2C(=S)SC(=Nc3ccccc3)C2=Nc2ccccc2)cc1 be said to have TGI at or above 8 µM?
## Result TRUE

## Task Can O=C(Oc1ccc(Cl)cc1Cl)c1ccccc1Nc1ccnc(C(F)(F)F)c1 be said to have TGI at or above 8 µM?
## Result TRUE

## Task Can CSc1nc(NC2CCCC2)c2cc[nH]c2n1 be said to have TGI at or above 8 µM?
## Result TRUE

## Task Can CCC[CH2][Sn-]([CH2]CCC)([CH2]CCC)[O]c1cc(Cl)c(Cl)cc1Cl be said to have TGI at or above 8 µM?
## Result FALSE

## Task Can C=C1CC2(OC1=O)C(=O)N(CCCCCCCN1C(=O)C3(CC(=C)C(=O)O3)c3ccccc31)c1ccccc12 (stereo unspecified) be said to have TGI at or above 8 µM?
## Result TRUE

## Task Can O=C(CCCCCCSc1nc(-c2ccccc2)cc(-c2ccc(Cl)cc2)n1)NO be said to have TGI at or above 8 µM?
## Result TRUE

====

# Test system: 786-0 renal
# Experiment summary: NCI tumour cell line growth inhibition, 48 h
Endpoint name: GI50

Documented GI50 of CNC(=O)c1cc(OC2CCC(NC(=O)Nc3ccc(Cl)c(C(F)(F)F)c3)CC2)ccn1 (stereo not given) : 8.34 µM

Documented GI50 of CS(=O)(=O)CCNCc1nc(-c2ccc3ncnc(Nc4ccc(F)c(Cl)c4)c3c2)cs1 : 22.9 µM

Documented GI50 of CNC(P(=O)([O-])[O-])P(=O)([O-])[O-].N.N.[Pt+2] : > 100 µM

Documented GI50 of COc1ccc2c(c1)/C(=C\c1c(C)nc3sc(C)cn13)C(=O)N2C : 8.92 µM

Documented GI50 of ClCc1cccc(Cn2cnc3c(Cl)ncnc32)c1 : 6.17 µM

Documented GI50 of O=[N+]([O-])C1C(c2ccccc2)C12c1ccccc1-c1ccccc12 (stereo not given) : 0.59 µM

Documented GI50 of COc1ccc2cc(C(=O)/C=C/c3cc(OC)c(OC)c(OC)c3)ccc2c1 : 7.61 µM

Documented GI50 of CC(=O)Nc1ccc2c(c1)c(C1=C(c3cn(C)c4ccccc34)C(=O)NC1=O)cn2C : 1.28 µM

Documented GI50 of O=C1NCc2ccc3c(-c4cccc(Cl)c4)c[nH]c3c21 : 0.276 µM

Documented GI50 of COc1cc2c3c(n(C)c(=O)c2cc1OC)-c1cc2c(cc1/C3=C\CCCCCN)OCO2 : 0.979 µM

====

# Test system: SK-MEL-2 melanoma
# Experiment summary: NCI tumour cell line growth inhibition, 48 h
Endpoint name: TGI (µM)
Please state the figure in µM; there is no need to write the unit.

>>> assay_result("CCN(CC)CCOc1nc2ccc(OC)cc2c2c1-c1ccc(OC)cc1C2=O")
4.05

# ---- query molecule ----
Documented TGI of CC(C)/C(Cl)=N/OC(=O)Nc1ccc(F)c(Cl)c1 : 34.2

====

# Tested on: NCI-H226 lung
# Experiment summary: NCI tumour cell line growth inhibition, 48 h
Endpoint name: TGI

>>> assay_result("O=C(O)c1c(-c2cccc3ccccc23)sc(-c2cccc3ccccc23)c1C(=O)O")
"> 100 µM"

Documented TGI of COc1cc(CCc2ccc(OCCN(C)C)cc2)cc(OC)c1OC : > 100 µM

Documented TGI of CC(=O)n1c(COS(C)(=O)=O)nc2ccccc21 : > 100 µM

Documented TGI of COc1ccc(Cl)cc1Nc1nc(C(F)(F)F)ccc1C(=O)N/N=C/c1c(Cl)cccc1Cl : > 100 µM

Documented TGI of CC1=C(C)C(=O)c2c(cc3ccc4ccccc4n23)C1=O : > 100 µM

Documented TGI of COc1ccc(N(C(=O)Nc2ccc(Cl)c(Cl)c2)c2ccccc2)cc1 : > 10 µM

Documented TGI of Cc1ccc2c(=O)cc(-c3csc4ccccc34)[nH]c2n1 : 0.0863 µM

Documented TGI of COC(=O)/C=C/c1ccccc1N=[S@](C)(=O)c1ccc(C)cc1 : > 100 µM

Documented TGI of CC1=C(C(=O)Nc2c(C)cccc2C)C(c2ccc3c(c2)OCO3)C(C(=O)Nc2c(C)cccc2C)=C(C)N1 : 32.3 µM

Documented TGI of CC(C)/C(Cl)=N/OC(=O)Nc1ccc(F)c(Cl)c1 : 30.9 µM

Documented TGI of CCOC(=O)C(=O)Nc1nc2c(s1)C(=O)c1ccccc1C2=O : 34.4 µM

Documented TGI of CC(=O)Nc1ccc2c(c1)c(C1=C(c3cn(C)c4ccccc34)C(=O)NC1=O)cn2C : > 25 µM

Documented TGI of O=C1C(Br)=CC2([N+](=O)[O-])CCNc3c(O)c4c5c(c3C2=C1Br)=NCCC=5C=N4 (stereo not given) : 6.79 µM

Documented TGI of C=CCn1c2c(c3ccccc3c1=O)C(=O)c1ccccc1-2 : > 100 µM

Documented TGI of Cn1ccnc1Sc1ccc(/C=N/NC(=O)c2ccccc2O)cc1[N+](=O)[O-] : > 100 µM

Documented TGI of CC(C)(C)OC(=O)n1cc(C2CNC(=O)C23CCC(=O)N3Cc2ccccc2)c2ccccc21 (stereo not given) : 41.4 µM

Documented TGI of CCN1CC(C)Cn2c(=O)[nH]c3cc(Br)cc1c32 (stereo not given) : > 100 µM

Documented TGI of COc1cc(C2C=C(c3cccc(NC(C)=O)c3)Nc3ncnn32)cc(OC)c1OC (stereo not given) : > 100 µM

Documented TGI of O=c1c2ccccc2[nH]c(=S)n1-c1ccc(Br)cc1 : > 100 µM

Documented TGI of COC(=O)c1cc(C)ccc1CC(Cc1cccc(C)c1)C(=O)OC (stereo not given) : > 100 µM

Where do the numbers come from? From PubChem BioAssay (NCI).
